Run Description: Acute Toxicity, mice
Settings: in vivo; oral, mouse (male)
Protocol: Acute toxicity test was carried out by orally administering Compound (I) used in the present invention to mice (male) and rats (male).
Assignment: determine reported LD50 for the given compounds.

Quick one: LD50 of CCCCCCCCCC(=O)Nc1ccc(Cc2ccccn2)c([N+](=O)[O-])c1 [Compound F] ?
> 1000 mg/kg

// same read-out, input: CCCCCCCCCCCCCC(=O)Nc1ccc(Cc2ccccn2)c([N+](=O)[O-])c1 [Compound G]
> 1000 mg/kg

// same read-out, input: CCCCCC(=O)Nc1ccc(Cc2ccccn2)c([N+](=O)[O-])c1 [Compound D]
> 1000 mg/kg

// same read-out, input: CCCCCCCC(=O)Nc1ccc(Cc2ccccn2)c([N+](=O)[O-])c1 [Compound E]
> 1000 mg/kg

// same read-out, input: CC(=O)Nc1ccc(Cc2ccccn2)c([N+](=O)[O-])c1 [Compound A, α-(p-Acetylamino-o-nitrobenzyl)pyridine]
660 mg/kg

// same read-out, input: CCCC(=O)Nc1ccc(Cc2ccccn2)c([N+](=O)[O-])c1 [Compound B, α-(p-Butyrylamino-o-nitrobenzyl)pyridine]
1530 mg/kg

// same read-out, input: CCCCC(=O)Nc1ccc(Cc2ccccn2)c([N+](=O)[O-])c1 [Compound C, α-(p-Valerylamino-o-nitrobenzyl)pyridine]
> 300 mg/kg

====

Run Description: Acute Toxicity, rats
Settings: in vivo; oral, rat (male)
Property Name: LD50

Quick one: LD50 of CCCCCCCCCC(=O)Nc1ccc(Cc2ccccn2)c([N+](=O)[O-])c1 ?
> 100 mg/kg

// same read-out, input: CC(=O)Nc1ccc(Cc2ccccn2)c([N+](=O)[O-])c1
> 200 mg/kg

// same read-out, input: CCCCCCCCCCCCCC(=O)Nc1ccc(Cc2ccccn2)c([N+](=O)[O-])c1
> 100 mg/kg

// same read-out, input: CCCCCC(=O)Nc1ccc(Cc2ccccn2)c([N+](=O)[O-])c1
> 100 mg/kg

// same read-out, input: CCCC(=O)Nc1ccc(Cc2ccccn2)c([N+](=O)[O-])c1
> 850 mg/kg

// same read-out, input: CCCCCCCC(=O)Nc1ccc(Cc2ccccn2)c([N+](=O)[O-])c1
> 100 mg/kg
